Biological target: purified recombinant human alpha synuclein fibrils (human, UniProt P37840 1-140)
Assay: SPR, Biacore T200, as in Example 3; Fab injected;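 note: ligands amine-coupled on CM5 chip flow cells, HBS-EP+ running buffer, kinetic data fitted with 1:1 model allowing local bulk contribution and global Rmax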
OBSERVATION TYPE: koff (s⁻¹)
Give the number; s⁻¹ is assumed, so skip it.

Illustrative cases are given below, each with its answer.
| BINDER | OBSERVATION TYPE | REPORTED RESULT |
| --- | --- | --- |
| 6470 rabbit Fab with heavy chain mutation N99W (Fab, V domains shown) VH: QSVEESGGRLVTPGTPLTLTCTVSGIDLSSHDMYWVRQAPGKGLEYIGAIYASGSTYYASWAKGRFTISKTSTTVDLKMTSLTTEDTATYFCARIHYGWSGGLWGQGTLVTVSS VL: AIVMTQTPSSKSVAVGDTVTINCQASQSVYKNNYLAWFQQKPGQPPKQLIYGASTLASGVPSRFKGSGSGTQFTLTISDVVCDDAATYYCAGYKGGRNDGFAFGGGTEVVVKR | koff | 0.134 |
| 6470 rabbit Fab with heavy chain mutation H31R (Fab, V domains shown) VH: QSVEESGGRLVTPGTPLTLTCTVSGIDLSSRDMYWVRQAPGKGLEYIGAIYASGSTYYASWAKGRFTISKTSTTVDLKMTSLTTEDTATYFCARIHYGNSGGLWGQGTLVTVSS VL: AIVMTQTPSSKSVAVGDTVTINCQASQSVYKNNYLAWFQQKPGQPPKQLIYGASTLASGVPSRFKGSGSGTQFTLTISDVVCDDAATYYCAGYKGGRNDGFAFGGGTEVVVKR | koff | 0.373 |

Lab note: next binder to report on.
Req: Indicate its recorded koff; the binder in question is 6470 rabbit Fab with heavy chain mutation S55N (Fab, V domains shown) VH: QSVEESGGRLVTPGTPLTLTCTVSGIDLSSHDMYWVRQAPGKGLEYIGAIYASGNTYYASWAKGRFTISKTSTTVDLKMTSLTTEDTATYFCARIHYGNSGGLWGQGTLVTVSS VL: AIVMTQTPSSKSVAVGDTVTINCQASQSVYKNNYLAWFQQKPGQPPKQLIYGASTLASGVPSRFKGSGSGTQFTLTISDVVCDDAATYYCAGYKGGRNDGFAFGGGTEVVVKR
Resp: 0.013
